// values below are reported composite z-score
test system: Noggin (protein binding on small-molecule microarray); test: Noggin binders on small-molecule microarray, primary screen, biochemical, 635/667 nm fluorescence (AID 1095); conditions: 635 nm fluorescence, higher = more signal;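 further: score merges 667 nm feature fluorescence with signal to noise over triplicate slides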
Answer using only a numeral; do not append any unit.

In the examples that follow, each entry is paired with its recorded composite z-score.
{"MOLECULE": "COCCOC(=O)N1C(=O)[C@@]2(c3cc(C#CCCO)ccc31)[C@H](C(=O)N1CCN(c3ncccn3)CC1)[C@H]1C(=O)O[C@H](c3ccccc3)[C@H](c3ccccc3)N1[C@@H]2c1ccc(OCCO)cc1", "REPORTED": 0.86}
{"MOLECULE": "C=CC[C@H](O)c1ccc(O)c2ccccc12", "REPORTED": 1.07}
{"MOLECULE": "C#CCN(C(=O)OC(C)(C)C)[C@H](CO)c1ccccc1", "REPORTED": 0.582}
{"MOLECULE": "C=C(CCCC)/C(=C/C[C@@H](OC(C)=O)c1cccc(OCCO)c1)c1cc(C(=O)OC)ccc1OC", "REPORTED": 0.656}
{"MOLECULE": "CC[C@@H](O[Si](C#C[Si](C(C)C)(C(C)C)C(C)C)(C(C)C)C(C)C)c1cn([C@H](CO)Cc2ccccc2)nn1", "REPORTED": 0.715}

Quick one: composite z-score of `COCCOC(=O)N1C(=O)[C@@]2(c3cc(C#CCNC(N)=O)ccc31)[C@H](c1ccc(O)cc1)N1[C@H](c3ccccc3)[C@H](c3ccccc3)OC(=O)[C@H]1[C@@H]2C(=O)N1CCc2cc(OC)c(OC)cc2C1` ? 0.978

Try `CCCCC(=C=CC[C@H](O)c1cccc(OCCO)c1)C[C@H](O)c1cc(Cl)cc(Cl)c1O` next. 0.999

Try `COc1ccc([Si](C)(C)[C@H]2[C@H](CC(=O)N(CCO)Cc3ccccc3)O[C@@]3(C(=O)N(c4ccccc4)c4ccccc43)[C@@H]2C)cc1` next. 1.3
